experiment: Blood/plasma ratio and free fraction (PBTK input parameters); format: in vitro ADME; settings: blood and plasma; read-out: Blood/plasma ration [B/P]
assay metric: blood plasma ratio
API doc: respond with a numeric literal and nothing else, no unit.

## Task Data request, read-out blood plasma ratio, for NC1=NCCN1Cc1ccc(Cl)nc1
## Result 0.759

====

experiment: Blood/plasma ratio and free fraction (PBTK input parameters); format: in vitro ADME; settings: plasma; read-out: Free fraction [fu]
assay metric: fraction unbound
Field format: numeric only.

## Task Entry NC1=NCCN1Cc1ccc(Cl)nc1 has what fraction unbound?
## Result 0.841

====

molecular target: human α3β4 nAChR (Homo sapiens, UniProt P30926+P32297); test: Two-electrode voltage-clamp recordings, Xenopus laevis oocytes expressing human α3β4 nAChR
Sequence (P32297 32-505): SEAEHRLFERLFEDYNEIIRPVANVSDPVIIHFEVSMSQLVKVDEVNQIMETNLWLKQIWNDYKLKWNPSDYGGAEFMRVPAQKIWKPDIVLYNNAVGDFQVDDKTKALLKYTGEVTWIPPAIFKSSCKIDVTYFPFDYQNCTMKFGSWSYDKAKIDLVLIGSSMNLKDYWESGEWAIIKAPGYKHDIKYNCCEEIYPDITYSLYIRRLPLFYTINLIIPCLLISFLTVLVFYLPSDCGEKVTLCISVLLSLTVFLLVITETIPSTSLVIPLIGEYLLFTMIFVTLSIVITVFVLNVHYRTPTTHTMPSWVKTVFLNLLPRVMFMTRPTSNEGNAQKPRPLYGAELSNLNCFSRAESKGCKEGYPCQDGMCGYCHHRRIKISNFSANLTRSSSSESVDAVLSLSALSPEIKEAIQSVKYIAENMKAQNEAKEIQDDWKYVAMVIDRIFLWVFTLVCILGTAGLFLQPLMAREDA
Sequence (P30926 22-498): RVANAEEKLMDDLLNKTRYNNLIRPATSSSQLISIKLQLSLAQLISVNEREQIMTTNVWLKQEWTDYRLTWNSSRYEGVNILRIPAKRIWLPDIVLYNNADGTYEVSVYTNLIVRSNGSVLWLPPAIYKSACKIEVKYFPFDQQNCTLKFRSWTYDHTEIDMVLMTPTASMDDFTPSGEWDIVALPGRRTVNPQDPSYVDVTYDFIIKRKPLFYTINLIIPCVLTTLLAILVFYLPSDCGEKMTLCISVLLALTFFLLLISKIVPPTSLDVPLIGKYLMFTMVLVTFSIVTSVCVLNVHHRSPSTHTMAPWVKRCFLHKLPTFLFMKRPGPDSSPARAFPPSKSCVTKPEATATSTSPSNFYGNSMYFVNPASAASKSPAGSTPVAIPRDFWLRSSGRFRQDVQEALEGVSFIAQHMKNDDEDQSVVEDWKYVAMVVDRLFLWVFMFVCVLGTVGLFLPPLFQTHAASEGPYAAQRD
assay metric: pEC50
pEC50 field: float, defined as -log10 of concentration (mol/L).

## Task Recall the recorded pEC50 for NC1=NCCN1Cc1ccc(Cl)nc1 [DN-IMI, desnitro-imidacloprid] with human α3β4 nAChR (Homo sapiens, UniProt P30926+P32297) and state it.
## Result 4.90

====

molecular target: human α4β2 (HS) nAChR (Homo sapiens, UniProt P17787+P43681); experiment: Two-electrode voltage-clamp recordings, Xenopus laevis oocytes expressing human α4β2 (HS) nAChR
Sequence (P43681 27-627): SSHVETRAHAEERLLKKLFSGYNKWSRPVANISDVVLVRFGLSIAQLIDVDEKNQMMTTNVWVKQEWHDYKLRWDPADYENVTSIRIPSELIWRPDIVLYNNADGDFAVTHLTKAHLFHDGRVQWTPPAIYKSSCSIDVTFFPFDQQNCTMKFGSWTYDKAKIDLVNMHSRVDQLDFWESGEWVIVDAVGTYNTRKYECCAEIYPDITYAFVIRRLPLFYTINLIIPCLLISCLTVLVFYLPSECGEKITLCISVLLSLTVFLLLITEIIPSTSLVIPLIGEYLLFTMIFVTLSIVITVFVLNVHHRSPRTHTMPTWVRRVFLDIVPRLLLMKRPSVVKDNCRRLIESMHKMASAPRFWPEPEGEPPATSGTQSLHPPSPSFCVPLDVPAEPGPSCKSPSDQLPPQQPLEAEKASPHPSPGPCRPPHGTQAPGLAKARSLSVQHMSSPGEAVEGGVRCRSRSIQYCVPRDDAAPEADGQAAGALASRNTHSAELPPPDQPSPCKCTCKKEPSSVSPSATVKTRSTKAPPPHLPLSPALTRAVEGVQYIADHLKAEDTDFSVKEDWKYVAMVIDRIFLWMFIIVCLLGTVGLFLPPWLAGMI
Sequence (P17787 26-502): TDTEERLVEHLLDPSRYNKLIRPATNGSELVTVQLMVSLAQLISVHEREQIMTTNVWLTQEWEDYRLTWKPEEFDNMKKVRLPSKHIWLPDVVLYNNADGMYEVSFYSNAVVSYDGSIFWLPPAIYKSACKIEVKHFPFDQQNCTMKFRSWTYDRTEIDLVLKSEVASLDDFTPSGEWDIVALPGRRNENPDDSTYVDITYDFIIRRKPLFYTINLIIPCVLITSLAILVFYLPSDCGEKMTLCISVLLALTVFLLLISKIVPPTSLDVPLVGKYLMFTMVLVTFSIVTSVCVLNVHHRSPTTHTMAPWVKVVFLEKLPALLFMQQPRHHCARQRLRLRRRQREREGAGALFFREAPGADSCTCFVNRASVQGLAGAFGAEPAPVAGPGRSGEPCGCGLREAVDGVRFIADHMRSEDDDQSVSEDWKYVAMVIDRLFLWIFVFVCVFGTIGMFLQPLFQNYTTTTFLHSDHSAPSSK
assay metric: EC50

## Task // EC50 lookup, key: NC1=NCCN1Cc1ccc(Cl)nc1 [DN-IMI, desnitro-imidacloprid]
## Result 501 nM
